The measured values listed here are drawn from patent US11999727B2.

molecular target: PRMT5 (Homo sapiens); construct: purchased Viva (custom protein); experiment: PRMT5 biochemical IC50 assay with SAM as cofactor; settings: PRMT5, SAM as cofactor; read-out: SAM IC50
Sequence (O14744 whole entry): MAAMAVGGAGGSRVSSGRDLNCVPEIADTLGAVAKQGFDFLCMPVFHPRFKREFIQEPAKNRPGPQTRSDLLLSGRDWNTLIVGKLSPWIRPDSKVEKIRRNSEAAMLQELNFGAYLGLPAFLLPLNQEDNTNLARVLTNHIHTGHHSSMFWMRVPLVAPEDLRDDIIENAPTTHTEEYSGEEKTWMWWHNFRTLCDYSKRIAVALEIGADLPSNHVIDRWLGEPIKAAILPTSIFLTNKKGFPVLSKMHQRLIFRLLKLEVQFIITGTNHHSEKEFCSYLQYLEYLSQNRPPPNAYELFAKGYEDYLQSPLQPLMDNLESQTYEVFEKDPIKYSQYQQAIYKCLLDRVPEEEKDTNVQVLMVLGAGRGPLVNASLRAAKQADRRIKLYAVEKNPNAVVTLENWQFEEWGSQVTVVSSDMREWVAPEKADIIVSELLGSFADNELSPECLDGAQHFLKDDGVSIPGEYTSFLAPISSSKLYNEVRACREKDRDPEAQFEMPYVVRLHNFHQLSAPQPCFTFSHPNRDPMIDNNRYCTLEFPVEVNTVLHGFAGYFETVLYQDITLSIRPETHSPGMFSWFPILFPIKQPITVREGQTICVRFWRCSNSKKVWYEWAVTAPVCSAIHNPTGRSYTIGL
Sequence (Q9BQA1 whole entry partner): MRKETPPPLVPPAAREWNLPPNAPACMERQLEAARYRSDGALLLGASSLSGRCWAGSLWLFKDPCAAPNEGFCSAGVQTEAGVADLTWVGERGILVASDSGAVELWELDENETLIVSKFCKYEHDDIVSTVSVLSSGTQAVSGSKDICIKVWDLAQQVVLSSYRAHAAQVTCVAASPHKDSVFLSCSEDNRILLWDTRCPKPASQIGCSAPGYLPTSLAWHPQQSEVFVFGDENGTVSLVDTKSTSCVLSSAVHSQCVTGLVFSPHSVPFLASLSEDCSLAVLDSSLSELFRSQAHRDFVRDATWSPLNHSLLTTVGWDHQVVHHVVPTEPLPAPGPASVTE
result type: IC50

Prompt: Form field: IC50 recorded for C[C@@H]1CC[C@@H](c2ccc(-n3cccn3)cc2)N(C(=O)C(=O)Nc2cncc(C(N)=O)c2)C1 (racemic) with PRMT5 (Homo sapiens) (enter value)
Completion: 50 to 500 nM

Prompt: Okay, and CN(C)c1cccc([C@H]2CCCCN2C(=O)C(=O)Nc2cncc(C(N)=O)c2)c1 (single isomer, unassigned) ?
Completion: > 500 nM

Prompt: Okay, and C[C@@H]1CC[C@@H](c2ccc(C3(O)CCC3)cc2)N(C(=O)C(=O)Nc2cncc(C(N)=O)c2)C1 (racemic) ?
Completion: 50 to 500 nM

Prompt: Okay, and C[C@@H]1CC[C@@H](c2ccccn2)N(C(=O)C(=O)Nc2cncc(C(N)=O)c2)C1 (single isomer, unassigned) ?
Completion: > 500 nM

Prompt: Okay, and C[C@@H]1CC[C@@H](c2ccc3sc(C(F)(F)F)nc3c2)N(C(=O)C(=O)Nc2cncc(C(N)=O)c2)C1 (single isomer, unassigned) ?
Completion: > 500 nM

Prompt: Okay, and C[C@H]1CN(C(=O)C(=O)Nc2cncc(C(N)=O)c2)[C@H](c2ccc(F)c(F)c2)CC1(F)F (single isomer, unassigned) ?
Completion: 50 to 500 nM

Prompt: Okay, and Cc1cc(NC(=O)C(=O)N2C[C@H](C)CC[C@H]2c2cccc3c2CCN3)cnc1N (single isomer, unassigned) ?
Completion: 50 to 500 nM

Prompt: Okay, and Cc1cc(NC(=O)C(=O)N2C[C@@H](C)CC[C@@H]2c2ccc3c(cnn3C)c2)cnc1N (single isomer, unassigned) ?
Completion: > 500 nM

---
Prompt: Form field: IC50 recorded for C[C@H]1CC[C@H](c2ccc3sc(C(F)(F)F)nc3c2)N(C(=O)C(=O)Nc2cncc(C(N)=O)c2)C1 (single isomer, unassigned) with PRMT5 (Homo sapiens) (enter value)
Completion: 50 to 500 nM

Prompt: Okay, and Cc1cc(NC(=O)C(=O)N2C[C@H](C)CC[C@H]2C2CCC(C(C)(C)C)CC2)cnc1N (mixture of isomers) ?
Completion: 50 to 500 nM
